experiment: Plasma protein binding in rat at 5 uM after 4 hrs by equilibrium dialysis method; format: ADME, cell-free; settings: read-out: PPB
Property Measured: fraction unbound at 4 h, 5 µM
Answer with a number only.

Reported fraction unbound at 4 h, 5 µM for O=C(Nc1ccc2c(c1)N(S(=O)(=O)c1ccc(F)cc1)CCC2)c1c(F)cccc1F : what is it?
0.01

Also check O=C(Nc1ccc2c(c1)N(S(=O)(=O)c1ccc(F)cc1)CC2)c1c(F)cccc1F
0.01

* * *

target: Nuclear receptor ROR-gamma; test: Inverse agonist activity at GAL4-fused human RORc expressed in HEK293 cells assessed as suppression of basal transcriptional activity after 20 hrs by dual-glo luciferase reporter gene assay
Property Measured: pEC50
// pEC50 here means minus log10 of the molar concentration (mol/L)

Reported pEC50 for O=C(Nc1ccc2c(c1)N(S(=O)(=O)c1ccc(F)cc1)CC2)c1c(F)cccc1F : what is it?
6.55
